Give measured Ki for each item. Keep answers brief.
- measuredOn: AChE from human erythrocytes (Homo sapiens, UniProt P22303)
- Construct: Acetylcholinesterase (AChE, EC 3.1.1.7, from human erythrocyte); purchased Sigma-Aldrich (Germany); host or cells: human erythrocytes
- Sequence (P22303 32-617 isoform P22303-2 limits assumed): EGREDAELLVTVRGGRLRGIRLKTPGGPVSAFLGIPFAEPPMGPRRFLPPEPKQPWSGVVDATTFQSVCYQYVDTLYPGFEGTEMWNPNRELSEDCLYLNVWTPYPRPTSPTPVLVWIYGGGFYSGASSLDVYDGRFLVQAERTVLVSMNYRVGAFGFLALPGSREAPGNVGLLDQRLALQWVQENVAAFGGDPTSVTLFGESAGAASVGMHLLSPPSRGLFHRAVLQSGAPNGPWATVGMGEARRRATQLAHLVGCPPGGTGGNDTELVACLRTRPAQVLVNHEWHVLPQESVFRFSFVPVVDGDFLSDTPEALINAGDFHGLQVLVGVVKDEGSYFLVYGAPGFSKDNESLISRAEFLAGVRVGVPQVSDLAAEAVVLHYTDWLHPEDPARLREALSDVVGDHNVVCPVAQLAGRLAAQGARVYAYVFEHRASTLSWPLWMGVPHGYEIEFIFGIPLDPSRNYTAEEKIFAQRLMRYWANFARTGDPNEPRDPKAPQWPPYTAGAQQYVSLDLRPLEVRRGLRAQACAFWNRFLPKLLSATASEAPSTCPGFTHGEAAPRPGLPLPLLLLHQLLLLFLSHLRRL
- Assay type: biochemical
- conditions: Lineweaver-Burk analysis; read-out: Ki (competitive component), AChE
Numbers only, in nM.

- smilesEntry: "Cc1ccc2c(c1)c1c(n2CCC(=O)N2c3ccc(N(C)C)cc3Sc3cc(N(C)C)ccc32)CCN(C)C1"
  metric: "Ki"
  unitsText: "nM"
  quantitativeReadout: 880

q: Answer with reported Ki of `Cc1ccc2c(c1)c1c(n2CCC(=O)N2c3ccc(N(C)C)cc3Sc3cc(N(C)C)ccc32)CCN(C(C)C)C1.Cl.Cl.Cl`
a: 3520
